All figures here come from patent US20120053053A1.

readout: melting point

Consider the reported melting point for these compounds:
{"compound": "C=Cc1c(OC)nc(-c2ccc(Cl)c(OC)c2F)nc1C(=O)OC [Compound 27-398]", "melting point": "107 to 108 °C"}
{"compound": "COC(=O)c1nc(C2CC2)nc(N)c1C [Compound 2-41]", "melting point": "152 to 153 °C"}
{"compound": "COC(=O)c1nc(-c2ccc(Cl)c(N(C)C)c2F)nc(N)c1C1CC1 [Compound 33-58]", "melting point": "156 to 158 °C"}

Could you tell me which melting point is on file for C=Cc1c(C(=O)OC)nc(C2CC2)nc1[S+](C)[O-] (centres unmarked) [Compound 2-401] ?
74 to 75 °C

Would you kindly share the measured melting point for C=Cc1c(N)nc(-c2ccc(C)cc2)nc1C(=O)OC [Compound 36-61] ?
122 to 123 °C
